- Assay overview: Volume of distribution at steady state in iv or po dosed Sprague-Dawley rat
- Type: ADME, organism-based
- Condition info: in vivo, read-out: Vdss
Measurement kind: Vd (L/kg)

Solved entries (count: 2):
O=C1[C@@H](NS(=O)(=O)c2ccc3cc(Cl)ccc3c2)CCN1c1cc2c(cc1F)CNCC2 1
O=C1[C@@H](NS(=O)(=O)/C=C/c2ccc(Cl)s2)CCN1c1ccc2c(c1F)CCNC2 0.9

a. O=C1[C@@H](NS(=O)(=O)/C=C/c2ccc(Cl)s2)CCN1c1ccc2c(c1)CCNC2
b. O=C1[C@@H](NS(=O)(=O)c2ccc3cc(Cl)ccc3c2)CCN1c1ccc2c(c1)CCCNC2
c. O=C1[C@@H](NS(=O)(=O)/C=C/c2ccc(Cl)s2)CCN1c1cc2c(cc1F)CNCC2
[Q] Sequence the entries by Vd, beginning with the highest number. Reply with the item labels sorted in the order that was asked for.
[A] b, a, c
